Origin of values: a melting point compilation (Tetko et al.; mined from patent text by program, amines drawn as free bases though some values may be those of a salt)

A collection of compounds and their measured melting point

# compound, melting point
records = [
    ("Cc1ccc([N+](=O)[O-])c(CC2NC(=O)NC2=O)c1C (configuration not stated)", "172 to 174 °C"),
    ("Cn1c(C(F)(F)F)cc(=O)n(-c2ncc(Cl)cc2F)c1=O", "133 to 134 °C"),
    ("CC(C)n1cc(-c2nc(C#N)c(N)nc2-c2ccc(F)c(F)c2)ccc1=O", "180 °C"),
    ("Nc1cc2c(cc1[N+](=O)[O-])CCCCC2", "137 to 139 °C"),
    ("COC(=O)c1sc(C(=O)OC)c(-c2ccoc2)c1O", "102 °C"),
    ("NC(=O)n1nc(-c2ccco2)cc1N", "145 °C"),
]

Fill blank: measured melting point of the compound Cc1nc(N2CCN(CC3CC3)C2=O)sc1-c1cc[nH]n1 is ____.
169 to 171 °C

What does the record list as melting point for N#Cc1cccc(CN2CCC(c3ccc(NC(=O)c4ccccc4-c4ccc(C(F)(F)F)cc4)cc3)CC2)c1 ?
124 to 126 °C

Please report the recorded melting point for O=c1cc(-c2ccncn2)nc2n1CCCCC2C1CC1 (racemic) .
139 to 140 °C

====

Recorded melting point by entry

Here are 8 molecules together with their reported answers.
# molecule, melting point
data = [
    ("Cc1nc2c(CN3CCOCC3)cc(Cl)nn2c1C(=O)c1ccc(Cl)cc1F", "145 to 147 °C"),
    ("Cn1c(SSc2c(C(=O)Nc3ccccc3)c3cc(O)ccc3n2C)c(C(=O)Nc2ccccc2)c2cc(O)ccc21", "185 to 187 °C"),
    ("C=Cn1ccnc1C(O)(c1ccccc1)c1ccccc1C(C)(C)C (stereo unspecified)", "152 to 153 °C"),
    ("CN1CCN(c2ncccc2C#N)C(c2ccccc2)C1 (stereo unspecified)", "65.7 to 66.8 °C"),
    ("c1cc(-c2nc3c4c(ncc3[nH]2)CCOC4)no1", "> 300 °C"),
    ("O=C1c2ccccc2C(Cc2ccnc(F)c2)(Cc2ccnc(F)c2)c2ccccc21", "156 to 157 °C"),
    ("CCN1CCN(Cc2ccc(CCn3cnc4cc(-c5ccc(Cl)cc5)sc4c3=O)cc2)C(=O)C1=O", "285 to 288 °C"),
    ("Clc1cc(Cl)c2cccc3c2c1N=C3NCCCCCn1ccnc1", "191 to 192 °C"),
]

Please turn your attention to the following entry.
So what's the measured melting point for this one? CN(C)C=NS(=O)(=O)c1cc(CCNC(=O)C(F)(F)F)ccc1OCc1ccccc1
103 °C

====

reportedMetric: melting point

# molecule, melting point
data = [
    ("O=C(O)c1cccc(OCc2csc(-c3ccccc3)n2)c1", "155 to 157 °C"),
    ("Clc1cccc(Oc2ccc(N3CCNCC3)nc2)c1", "70 to 73 °C"),
]

What value of melting point has been reported for the following molecule? CC(=O)c1csc2ccc(F)cc12
90 to 92 °C

Fill blank: measured melting point of the molecule CCS(=O)(=O)c1ccc(F)c(C#Cc2cc(Cl)ccc2OCC(=O)O)c1 is ____.
165 to 169 °C

Consider the molecule shown here: Cc1ccc([N+](=O)[O-])c(C(=O)N[C@@H]2c3cc(OC(F)(F)F)ccc3OC(C)(C)[C@H]2O)c1 What is its recorded melting point?
185 to 187 °C

Which melting point reading was recorded for the molecule Cc1nnc(Cl)c(-c2c(F)cc(F)cc2F)c1-c1ccc2ccccc2c1 ?
86 to 89 °C

What does the record list as melting point for CC(=O)NCC1(N2CCN(C)CC2)CCCCC1 ?
110 to 111 °C

Requested read-out: melting point. Entry: CCCCCC(C)C(C)c1cc(OC)c2c(c1)OC(C)(C)C1=C2CN(C(N)=NO)CC1 (stereo not given)
176 to 178 °C

Please give the measured melting point for this molecule: CCOC(=O)/C(=N\OC(C)(C)C(=O)OC(C)(C)C)c1nc(C(c2ccccc2)(c2ccccc2)c2ccccc2)sc1N
124 to 125 °C

Field request: melting point | item: Oc1ccc2c(-c3cccc4ccc(O)cc34)noc2c1
262 to 264 °C

Name the recorded melting point for CCOC(=O)C=c1sc2n(c1=O)Cc1ccccc1N=2 .
222 to 224 °C
